Values were extracted from paper PMC10572522.

Tested on: human prostate carcinoma cell line PC-3
METHOD SUMMARY: Anti-proliferative assay (MTT)
Assay type: cell-based
EXPERIMENTAL SETUP: PC3, MTT, 24 h
pIC50: −log10 of the molar value. Residues, ends and D or L forms follow the SMILES beside them.
Quick reference: pIC50 of the listed items.

MOLECULE | pIC50
CC[C@H](C)[C@H](NC(=O)[C@H](CC(C)C)NC(=O)[C@@H]1CCCN1C(=O)[C@H](CC(C)C)NC(=O)[C@@H](N)Cc1ccccc1)C(=O)N[C@@H](CC(C)C)C(=O)N[C@@H](CCCNC(=N)N)C(=O)N[C@@H](CCCCN)C(=O)N[C@H](C(=O)N[C@H](C(=O)N[C@H](C(=O)N[C@@H](C)C(=O)N[C@@H](CC(C)C)C(N)=O)[C@@H](C)O)C(C)C)[C@@H](C)CC [Crabrolin, FLPLILRKIVTAL-NH2] (H-FLPLILRKIVTAL-NH2) | 4.49
CC[C@H](C)[C@H](NC(=O)[C@H](CCCNC(=N)N)NC(=O)[C@@H]1CCCN1C(=O)[C@H](CC(C)C)NC(=O)[C@@H](N)CCCNC(=N)N)C(=O)N[C@@H](CC(C)C)C(=O)N[C@@H](CCCNC(=N)N)C(=O)N[C@@H](CCCCN)C(=O)N[C@H](C(=O)N[C@H](C(=O)N[C@@H](CCCNC(=N)N)C(=O)N[C@@H](C)C(=O)N[C@@H](CC(C)C)C(N)=O)C(C)C)[C@@H](C)CC [Crabrolin-FR, RLPRILRKIVRAL-NH2] (H-RLPRILRKIVRAL-NH2) | 4.80
CC[C@H](C)[C@H](NC(=O)[C@H](CCCNC(=N)N)NC(=O)[C@@H]1CCCN1C(=O)[C@H](CC(C)C)NC(=O)[C@@H](N)Cc1ccccc1)C(=O)N[C@@H](CC(C)C)C(=O)N[C@@H](CCCNC(=N)N)C(=O)N[C@@H](CCCCN)C(=O)N[C@H](C(=O)N[C@H](C(=O)N[C@@H](CCCNC(=N)N)C(=O)N[C@@H](C)C(=O)N[C@@H](CC(C)C)C(N)=O)C(C)C)[C@@H](C)CC [Crabrolin-TR, FLPRILRKIVRAL-NH2] (H-FLPRILRKIVRAL-NH2) | 5.40

###

Test system: K. pneumoniae (ATCC 43816) biofilm
Assay type: cell-based, Klebsiella pneumoniae
EXPERIMENTAL SETUP: eradication rate greater than 99.9%
Residues, ends and D or L forms follow the SMILES beside them.
MEASURE NAME: MBEC (µM)

COMPOUND | MEASURE NAME | PREFIX OPERATOR | RESULT VALUE
CC[C@H](C)[C@H](NC(=O)[C@H](CCCNC(=N)N)NC(=O)[C@@H]1CCCN1C(=O)[C@H](CC(C)C)NC(=O)[C@@H](N)CCCNC(=N)N)C(=O)N[C@@H](CC(C)C)C(=O)N[C@@H](CCCNC(=N)N)C(=O)N[C@@H](CCCCN)C(=O)N[C@H](C(=O)N[C@H](C(=O)N[C@@H](CCCNC(=N)N)C(=O)N[C@@H](CCCNC(=N)N)C(=O)N[C@@H](CC(C)C)C(N)=O)C(C)C)[C@@H](C)CC [Crabrolin-AR, RLPRILRKIVRRL-NH2] (H-RLPRILRKIVRRL-NH2) | MBEC | > | 512
CC[C@H](C)[C@H](NC(=O)[C@H](CCCNC(=N)N)NC(=O)[C@H](CCCNC(=N)N)NC(=O)[C@H](CC(C)C)NC(=O)[C@@H](N)CCCNC(=N)N)C(=O)N[C@@H](CC(C)C)C(=O)N[C@@H](CCCNC(=N)N)C(=O)N[C@@H](CCCCN)C(=O)N[C@H](C(=O)N[C@H](C(=O)N[C@@H](CCCNC(=N)N)C(=O)N[C@@H](CCCNC(=N)N)C(=O)N[C@@H](CC(C)C)C(N)=O)C(C)C)[C@@H](C)CC [Crabrolin-PR, RLRRILRKIVRRL-NH2] (H-RLRRILRKIVRRL-NH2) | MBEC | > | 512
CC[C@H](C)[C@H](NC(=O)[C@H](CCCCN)NC(=O)[C@@H]1CCCN1C(=O)[C@H](CC(C)C)NC(=O)[C@@H](N)Cc1ccccc1)C(=O)N[C@@H](CC(C)C)C(=O)N[C@@H](CCCNC(=N)N)C(=O)N[C@@H](CCCCN)C(=O)N[C@H](C(=O)N[C@H](C(=O)N[C@H](C(=O)N[C@@H](C)C(=O)N[C@@H](CC(C)C)C(N)=O)[C@@H](C)O)C(C)C)[C@@H](C)CC [Crabrolin-4K, FLPKILRKIVTAL-NH2] (H-FLPKILRKIVTAL-NH2) | MBEC | = | 256
CC[C@H](C)[C@H](NC(=O)[C@H](CCCNC(=N)N)NC(=O)[C@@H]1CCCN1C(=O)[C@H](CC(C)C)NC(=O)[C@@H](N)Cc1ccccc1)C(=O)N[C@@H](CC(C)C)C(=O)N[C@@H](CCCNC(=N)N)C(=O)N[C@@H](CCCCN)C(=O)N[C@H](C(=O)N[C@H](C(=O)N[C@H](C(=O)N[C@@H](C)C(=O)N[C@@H](CC(C)C)C(N)=O)[C@@H](C)O)C(C)C)[C@@H](C)CC [Crabrolin-4R, FLPRILRKIVTAL-NH2] (H-FLPRILRKIVTAL-NH2) | MBEC | = | 128
CC[C@H](C)[C@H](NC(=O)[C@H](CCCNC(=N)N)NC(=O)[C@@H]1CCCN1C(=O)[C@H](CC(C)C)NC(=O)[C@@H](N)Cc1ccccc1)C(=O)N[C@@H](CC(C)C)C(=O)N[C@@H](CCCNC(=N)N)C(=O)N[C@@H](CCCCN)C(=O)N[C@H](C(=O)N[C@H](C(=O)N[C@@H](CCCNC(=N)N)C(=O)N[C@@H](C)C(=O)N[C@@H](CC(C)C)C(N)=O)C(C)C)[C@@H](C)CC [Crabrolin-TR, FLPRILRKIVRAL-NH2] (H-FLPRILRKIVRAL-NH2) | MBEC | = | 128

###

Tested on: K. pneumoniae (ATCC 43816)
METHOD SUMMARY: Antimicrobial susceptibility assay (MIC/MBC)
Assay type: cell-based, Klebsiella pneumoniae
EXPERIMENTAL SETUP: MHB, 37 °C, 20 h
Residues, ends and D or L forms follow the SMILES beside them.
Quick reference: MIC of the listed items.
MEASURE NAME: MIC (µM)

COMPOUND | TARGET OF ASSAY | MEASURE NAME | PREFIX OPERATOR | RESULT VALUE
CC[C@H](C)[C@H](NC(=O)[C@H](CCCNC(=N)N)NC(=O)[C@@H]1CCCN1C(=O)[C@H](CC(C)C)NC(=O)[C@@H](N)CCCNC(=N)N)C(=O)N[C@@H](CC(C)C)C(=O)N[C@@H](CCCNC(=N)N)C(=O)N[C@@H](CCCCN)C(=O)N[C@H](C(=O)N[C@H](C(=O)N[C@@H](CCCNC(=N)N)C(=O)N[C@@H](C)C(=O)N[C@@H](CC(C)C)C(N)=O)C(C)C)[C@@H](C)CC [Crabrolin-FR, RLPRILRKIVRAL-NH2] (H-RLPRILRKIVRAL-NH2) | K. pneumoniae (ATCC 43816) | MIC | = | 8
CC[C@H](C)[C@H](NC(=O)[C@H](CC(C)C)NC(=O)[C@@H]1CCCN1C(=O)[C@H](CC(C)C)NC(=O)[C@@H](N)Cc1ccccc1)C(=O)N[C@@H](CC(C)C)C(=O)N[C@@H](CCCNC(=N)N)C(=O)N[C@@H](CCCCN)C(=O)N[C@@H](CCCNC(=N)N)C(=O)N[C@H](C(=O)N[C@H](C(=O)N[C@@H](C)C(=O)N[C@@H](CC(C)C)C(N)=O)[C@@H](C)O)C(C)C [Crabrolin-9R, FLPLILRKRVTAL-NH2] (H-FLPLILRKRVTAL-NH2) | K. pneumoniae (ATCC 43816) | MIC | > | 512
CC[C@H](C)[C@H](NC(=O)[C@H](CCCNC(=N)N)NC(=O)[C@@H]1CCCN1C(=O)[C@H](CC(C)C)NC(=O)[C@@H](N)CCCNC(=N)N)C(=O)N[C@@H](CC(C)C)C(=O)N[C@@H](CCCNC(=N)N)C(=O)N[C@@H](CCCCN)C(=O)N[C@H](C(=O)N[C@H](C(=O)N[C@@H](CCCNC(=N)N)C(=O)N[C@@H](CCCNC(=N)N)C(=O)N[C@@H](CC(C)C)C(N)=O)C(C)C)[C@@H](C)CC [Crabrolin-AR, RLPRILRKIVRRL-NH2] (H-RLPRILRKIVRRL-NH2) | K. pneumoniae (ATCC 43816) | MIC | = | 8
CC[C@H](C)[C@H](NC(=O)[C@H](CCCCN)NC(=O)[C@@H]1CCCN1C(=O)[C@H](CC(C)C)NC(=O)[C@@H](N)Cc1ccccc1)C(=O)N[C@@H](CC(C)C)C(=O)N[C@@H](CCCNC(=N)N)C(=O)N[C@@H](CCCCN)C(=O)N[C@H](C(=O)N[C@H](C(=O)N[C@H](C(=O)N[C@@H](C)C(=O)N[C@@H](CC(C)C)C(N)=O)[C@@H](C)O)C(C)C)[C@@H](C)CC [Crabrolin-4K, FLPKILRKIVTAL-NH2] (H-FLPKILRKIVTAL-NH2) | K. pneumoniae (ATCC 43816) | MIC | = | 16
